B1: TMEM106C (parent)
chain: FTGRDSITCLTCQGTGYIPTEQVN

- Variants of: B1
- Assay Summary: protein stability index of a GFP-peptide fusion (GPS, HEK-293T) (PSI 1-6); higher = more stable;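 note: lentivirally expressed fusions sorted by FACS into six bins by GFP to DsRed ratio, PSI derived from sequencing read proportions per bin multiplied by bin number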
- Condition Label: c terminus: a fixed tail appended
Each entry below carries its recorded protein stability index.
Would you mind answering with just the numeric figure?

[[record]]
sequence_chain = "FTGRTSITCLTCQGTGYIPTEQVN"
assay_readout = "protein stability index"
test_result = 2.15

[[record]]
sequence_chain = "FTGRDSITCLTCQGTGYIPNEQVN"
assay_readout = "protein stability index"
test_result = 1.8


input: Give a short answer stating reported protein stability index for ATGRDSITCLTCQGTGYIPTEQVN .
output: 4.7
